Target: T1, Human VEGFA165 (human, UniProt P15692-4 27-191)
T1 construct: treated as the same molecule; also called antigen VEGFA
T1 sequence (P15692 other isoform, or with tags, fused parts or gaps limits assumed): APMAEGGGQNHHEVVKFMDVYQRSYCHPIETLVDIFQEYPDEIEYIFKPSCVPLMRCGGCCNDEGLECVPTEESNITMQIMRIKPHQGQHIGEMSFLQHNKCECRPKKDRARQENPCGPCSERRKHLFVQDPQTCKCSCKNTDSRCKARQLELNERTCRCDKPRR
Test: competition ELISA on coated VEGFA, competitor VEGFR2-ECD-Fc 1 nM
// values below are reported pIC50
Note on units: pIC50 is unitless, being -log10 of a concentration expressed in mol/L.

Completed entries (count: 2):
INSERT INTO assay_data (binder, result_type, measured_number) VALUES
  ('V43-1H-87 (VHH, Humanized V43) VHH: EVQLVESGGGLVQPGGSLRLSCAASGRTFSSYTMGWFRQAPGKEREFVVAISKGGYKYDSVSLEARFTISRDNSKNTLYLQMNSLRPEDTAVYYCAATRAYGSSRLRLANTYEYWGQGTLVTVSS', 'pIC50', 8.28),
  ('V43-3H-78 (VHH, Humanized V43) VHH: EVQLVESGGGLVQPGGSLRLSCAASGRTFTSYTMGWFRQAPGKEREFVVAISKGGYKYDSVSLEARFTISRDNSKNTVYLQMNSLRAEDTAVYYCAGTRAYGSSRLRLANTYEYWGQGTLVTVSS', 'pIC50', 8.06);

Note: attention shifts to another entry.
Problem: Look up and state reported pIC50 for V30-2H-87 (VHH, Humanized V30) VHH: EVQLVESGGGLVQPGGSLRLSCAASGRTFSSYTMGWFRQAPGKEREFVVAISKGGYKYDAVSLEARFTISRDNSKNTLYLQMNSLRPEDTAVYYCAATRAYGSSRLRLAKTYEYWGQGTLVTVSS
Result: 8.24
